- Tested on: A549
- method.summary: Cytotoxicity against human A549 cells
- Assay type: functional, cell-based
pIC50: −log10 of the molar value.
measurement.label: pIC50

>>> observed_measurement("C[C@@]12CC[C@@H]3[C@@](CC[C@@H]4[C@](C)(COC(=O)/C=C/C(F)(F)F)CCC[C@]43C)(C[C@H]1O)C2")
5.39

Cited source for all entries: ChEMBL document CHEMBL3112483
